Value source: patent US20250195677A1

- targetEntity: human PD-1 on Jurkat Effector cells (Promega PD-1/PD-L1 blockade bioassay) (human, UniProt Q15116 25-288)
- Sequence (Q15116 25-288): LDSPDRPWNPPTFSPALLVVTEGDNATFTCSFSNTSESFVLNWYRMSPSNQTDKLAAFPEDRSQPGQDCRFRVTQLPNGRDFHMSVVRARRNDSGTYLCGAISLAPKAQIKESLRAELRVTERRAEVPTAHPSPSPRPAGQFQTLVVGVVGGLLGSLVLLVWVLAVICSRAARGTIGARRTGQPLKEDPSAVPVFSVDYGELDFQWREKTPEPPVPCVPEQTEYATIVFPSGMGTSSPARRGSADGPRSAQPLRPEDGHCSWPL
- measurementDescription: cell-based or functional assay
propertyName: luminescence, hPD-1/hPD-L1 blockade bioassay

Before answering, review these 2 worked examples.
binder="OMC.1.D6-hIgG4 (antibody, V domains shown) VH: EVQLLESGGGLVQPGGSLRLSCAASGFTFSDYYMSWVRQAPGKGLEWVSAISSSGGTIFYADSVKGRFIISRDNSKNTLYLQMNSLRAEDTAVYYCAKHKWNDVYYDAMDVWGQGTTVTVSS VL: QSVLTQPPSASGTPGQRVTISCSGSNSNIGRNLVNWYQQLPGTAPKLLIYTVDQRPSGVPDRFSGSKSGTSASLAISGLASEDEADYYCAAWDSSLNSWVFGGGTKLTVLG" reportedmeasurement="~3000 RLU"
binder="2A3.H7-hIgG4 (antibody, V domains shown) VH: EVQLLESGGGLVQPGGSLRLSCAASGFTFKDYCMTWVRQAPGKGLEWVSAIVYSGGSTYYADSVKGRFTISRDNSKNTLYLQMNNLRAEDTAVYYCAKYTRASYFYDAMDVWGQGTTVTVSS VL: EIVLTQSPGTLSLSPGERATLSCRASQSIGRSFLAWYQQKPGQAPRLLIYDASTRAADIPARFSGSGSGTDFTLTISSLEPEDFAVYYCQQYYDWPPLSFGGGTKVEIKR" reportedmeasurement="~3000 RLU"

Consider the additional binder presented here.
Which value of luminescence, hPD-1/hPD-L1 blockade bioassay has been reported for 1H9-hIgG4 (antibody, V domains shown) VH: EVQLLESGGGLVQPGGSLRLSCVGSGFNLKDYCMTWVRQAPGKGLEWVSAIVYSGGSTYYADSVKGRFTISRDNSKNTLYLQMNSLRAEDTAVYYCAKYTRGSYFYDAMDVWGQGTTVTVSS VL: EIVLTQSPGTLSLSPGERATLSCRASQSIGRSFLAWYQQKPGQAPRLLIYDASTRAADIPDRFSGSGSGTDFTLTINRLEPEDFAVYYCQQYYDWPPLTFGGGTKVEIKR in the records?
~3000 RLU
